Source of measurements: ChEMBL document CHEMBL1201862

# System: MDA-N
# Experiment Summary: NCI tumour cell line growth inhibition, 48 h
Activity calls are given as the source filed them. No stated cut-off is given here; in the data, active = GI50 up to about 1.1 µM and inactive = higher.
Classes used: active, inactive

Compound | Assayed System | Answer Label
CNc1ncnc2c1cnn2Cc1cn(CCCCO)nn1 | MDA-N | inactive
CC(=O)OC(C(=O)NNC(=O)OC(C)(C)C)c1ccccc1 (stereo unspecified) | MDA-N | inactive
N#CC1(C#N)[C@@H]2CCC=C(Sc3ccccc3)[C@@H]21 | MDA-N | inactive
CN1[C@@H]2CCCC[C@H]2N(C)P1(=O)C(O)/C=C/c1ccccc1 (stereo partly specified) | MDA-N | inactive
CCOC(=O)/C(=C\NC(C)(C)C)c1nc2ccccc2[nH]1 | MDA-N | inactive
CC(C)=CCc1c(O)c(CC=C(C)C)c2oc3c(c(=O)c2c1O)C(C=C(C)C)Oc1cc(O)ccc1-3 (stereo unspecified) | MDA-N | inactive
CC(=O)Oc1ccc2ccc(=O)oc2c1OC(C)=O | MDA-N | inactive
CC1=C(C(=O)OCCO[N+](=O)[O-])C(c2ccccc2[N+](=O)[O-])C(C(=O)OC(C)C)=C(C)N1 (stereo unspecified) | MDA-N | inactive
CC1(C)N=C(N)N=C(N)N1c1ccc(Cl)cc1 | MDA-N | inactive
CC1CCC2(C(=O)O)CCC3(C)C(=CCC4C5(C)CC(O)C(O)C(C)(CO)C5C(O)CC43C)C2C1C (stereo unspecified) | MDA-N | inactive
COc1ccc2[nH]c3c(C)c4ccnc(NCCCN(C)CCCN)c4c(C)c3c2c1 | MDA-N | active
Clc1ccc(-c2cc3nc4ccccc4nc3o2)cc1 | MDA-N | inactive
CC(C)(C)c1cc(C(C)(C)C)c(SC2OC(CO)C(O)C(O)C2O)c(O)c1O (stereo unspecified) | MDA-N | inactive
c1ccc2c(c1)c1c3n2-c2cc(on2)C3CCC1 (stereo unspecified) | MDA-N | inactive
N#C/C(=C\c1ccc(Br)cc1)c1nc(-c2cc3ccccc3oc2=O)cs1 | MDA-N | inactive
COC(=O)C1=C(C)NC2(C)OC(C)(O)C(C(C)=O)C12C(C)=O (stereo unspecified) | MDA-N | inactive
COC(=O)CN1C(=O)C2(C(=O)OC)OC1(c1ccc([N+](=O)[O-])cc1)C1C(=O)N(c3ccccc3)C(=O)C12 (stereo unspecified) | MDA-N | inactive
c1ccc([P+](c2ccccc2)(c2ccccc2)C2c3ccccc3-c3ccccc32)cc1 | MDA-N | active
Cc1ccc(S(=O)(=O)OC2C(C3COC(C)(C)O3)OC3OC(C)(C)OC32)cc1 (stereo unspecified) | MDA-N | inactive
Cc1ccc(C)c(NC(=O)C(Cc2c[nH]c3ccccc23)NC(=O)OCc2ccccc2)c1 (stereo unspecified) | MDA-N | inactive
COc1ccc2c3c(c(=O)n(C)c2c1OC)C=CC(C)(C)O3 | MDA-N | inactive
